protocol_summary: DPPH free radical scavenging assay
Type: biochemical
recorded_conditions: 15 min; concentration of 20µg/l; mean ± SD of three experiments; read-out: Scavenging Activity (%) on DPPH radicals at 15 min
metric: inhibition (%)
Give the value in % but do not write % after it.

The cases that follow already have their inhibition on record.
[
  {
    "compound": "O=C(c1ccccc1)n1cc(C2=NN(c3ccccc3)C3(C2)C(=O)Nc2ccccc23)c2ccccc21 (centres unmarked) [Compound 14d]",
    "inhibition (%)": 39.9
  },
  {
    "compound": "O=C(c1ccc(Cl)cc1)n1cc(C2=NN(c3ccccc3)C3(C2)C(=O)Nc2ccccc23)c2ccccc21 (centres unmarked) [Compound 14f]",
    "inhibition (%)": 9.05
  },
  {
    "compound": "O=C(c1ccc(Cl)cc1)n1cc(C2=NNC3(C2)C(=O)Nc2ccccc23)c2ccccc21 (centres unmarked) [Compound 13f]",
    "inhibition (%)": 17.9
  },
  {
    "compound": "O=C1Nc2ccccc2C12CC(c1c[nH]c3ccccc13)=NN2 (centres unmarked) [Compound 13a]",
    "inhibition (%)": 41.1
  },
  {
    "compound": "CCn1cc(C2=NNC3(C2)C(=O)Nc2ccccc23)c2ccccc21 (centres unmarked) [Compound 13b]",
    "inhibition (%)": 43.5
  }
]

Query: inhibition; subject: CCn1cc(C2=NN(c3ccccc3)C3(C2)C(=O)Nc2ccccc23)c2ccccc21 (centres unmarked) [Compound 14b] 42.4

Requested read-out: inhibition. Entry: O=C(c1ccccc1Cl)n1cc(C2=NNC3(C2)C(=O)Nc2ccccc23)c2ccccc21 (centres unmarked) [Compound 13e] 9.1

// inhibition lookup, key: COc1c(C2=NNC3(C2)C(=O)Nc2ccccc23)c(O)c(OC)c2occc12 (centres unmarked) [Compound 12a] 56.4
